All figures here come from paper PMC4549706.

Molecular target: porcine succinate-cytochrome c reductase (SCR, the mixture of complex II and bc1) (Sus scrofa)
Construct: T h e S C R f r o m p o r c i n e h e a r t; from tissue; host or cells: porcine heart
Sequence (P24964 whole entry, one chain of several): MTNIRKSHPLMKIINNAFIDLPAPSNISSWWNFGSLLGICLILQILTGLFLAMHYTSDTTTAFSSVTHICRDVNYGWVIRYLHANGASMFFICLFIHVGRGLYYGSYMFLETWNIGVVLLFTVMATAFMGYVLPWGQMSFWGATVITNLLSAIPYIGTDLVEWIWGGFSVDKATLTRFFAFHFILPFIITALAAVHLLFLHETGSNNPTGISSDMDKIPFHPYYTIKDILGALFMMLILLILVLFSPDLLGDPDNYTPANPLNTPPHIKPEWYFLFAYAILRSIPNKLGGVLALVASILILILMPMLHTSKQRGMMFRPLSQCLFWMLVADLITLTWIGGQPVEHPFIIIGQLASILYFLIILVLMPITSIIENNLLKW
Assay: SCR activity, succinate-cytochrome c system (Assay 1)
Type: biochemical
Conditions: Table S1, experimental binding free energy change vs compound 1
REPORTED METRIC: ∆∆Gexp (kcal/mol)
Dear colleague, please return just the value in kcal/mol, with no unit written.

Use these answered entries as a reference point.
In [3]: df
Out[3]:
                                 cpd_smiles  result_value
0  CO/N=C(/C(=O)OC)c1ccccc1CSc1nc2cc([N+](=O)[O-])ccc2s1         -2.00
1   CO/C=C(/C(=O)OC)c1ccccc1CSc1nc2ccccc2s1          0.00

Fill blank: measured ∆∆Gexp of the compound CO/N=C(/C(=O)OC)c1ccccc1CSc1nc2c(F)cccc2s1 is ____.
0.97

Fill blank: measured ∆∆Gexp of the compound CO/C=C(/C(=O)OC)c1ccccc1CSc1nc2ccc(C(F)(F)F)cc2s1 is ____.
-2.16

Fill blank: measured ∆∆Gexp of the compound CO/C=C(/C(=O)OC)c1ccccc1CSc1nc2c(Cl)cccc2s1 is ____.
0.47

Fill blank: measured ∆∆Gexp of the compound CO/N=C(/C(=O)OC)c1ccccc1CSc1nc2ccc([N+](=O)[O-])cc2s1 is ____.
-0.08

Fill blank: measured ∆∆Gexp of the compound CO/N=C(/C(=O)OC)c1ccccc1CSc1nc2ccc(C)cc2s1 is ____.
-0.57

Fill blank: measured ∆∆Gexp of the compound COC=C(C(=O)OC)c1ccccc1CSc1nc2cc(OC)ccc2s1 is ____.
-1.20

Fill blank: measured ∆∆Gexp of the compound CO/C=C(/C(=O)OC)c1ccccc1CSc1nc2ccc(C)cc2s1 is ____.
-1.96

Fill blank: measured ∆∆Gexp of the compound CO/C=C(/C(=O)OC)c1ccccc1CSc1nc2cc(F)ccc2s1 is ____.
-1.58
